Reference for the values: ChEMBL document CHEMBL3046198

test system: Trichophyton mentagrophytes; assay: Antifungal activity against Trichophyton mentagrophytes IFO 32412 after 7 days by agar dilution method; type: functional; conditions: IFO 32412, 168 h
RECORDED_METRIC: MIC (µg/mL)
A number alone suffices; assume µg/mL.

Provide one value: measured MIC of NN1C(=O)CSC1=S [AMINORHODANINE]
12.5

For O=C1CSC(=S)N1 [RHODANINE] , write its MIC.
200

---

system: Aspergillus niger; assay: Antifungal activity against Aspergillus niger ATCC 16404 after 7 days by agar dilution method; type: functional; settings: ATCC 16404, 168 h
Each item that follows carries a reported MIC.
Respond with the bare value in µg/mL.

compound_structure_string=O=C1CSC(=S)N1 result_unit=µg/mL reported_measurement=800

Now let's try a different one.
Please look at this molecule and report its MIC: NN1C(=O)CSC1=S
6.25
